# Target desc: Calpain-2 catalytic subunit (Sus scrofa)
# Sequence (P43367 whole entry): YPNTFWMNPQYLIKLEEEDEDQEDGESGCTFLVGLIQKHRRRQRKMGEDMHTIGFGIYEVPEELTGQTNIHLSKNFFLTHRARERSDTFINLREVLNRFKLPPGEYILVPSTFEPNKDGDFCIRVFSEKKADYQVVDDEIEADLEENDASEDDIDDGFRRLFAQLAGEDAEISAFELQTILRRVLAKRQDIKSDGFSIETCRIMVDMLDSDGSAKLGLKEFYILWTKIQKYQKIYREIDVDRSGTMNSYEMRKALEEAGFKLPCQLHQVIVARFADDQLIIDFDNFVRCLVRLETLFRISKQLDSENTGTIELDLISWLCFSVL
# Assay method text: m-calpain protease blockers, concentration series – biochemical, fluorogenic peptide substrate, dose response (AID 1420)
# Format: functional
Reported endpoint: IC50

Entry O=C(Nc1ccc2c(c1)CCC2)c1cccc(S(=O)(=O)Nc2ccccc2Cl)c1 — recorded IC50 = 6.7 µM (not active)

Entry COc1ccccc1N1CCN(CC(O)COc2ccc3c(c2)OCO3)CC1 (stereo not given) — recorded IC50 = > 50 µM (not active)

Entry COc1ccc(C(=O)N(Cc2nc(-c3ccc(C)cc3)no2)C2CCCCC2)cc1OC — recorded IC50 = 10.8 µM (not active)

Entry Cc1c(C(=O)N2c3ccccc3Sc3ccccc32)cccc1[N+](=O)[O-] — recorded IC50 = 2.4 µM (not active)

Entry COc1ccc(Cl)cc1N(CC(=O)NC(C)(C)C)S(=O)(=O)c1ccc(C)c([N+](=O)[O-])c1 — recorded IC50 = 12.7 µM (not active)

----------
Please go through the items and note down their AC50.
# Target desc: Cytochrome P450 2D6 (Homo sapiens, UniProt P10635);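 further: CYP2D6 member of a cytochrome P450 panel assay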
# Sequence (P10635 whole entry): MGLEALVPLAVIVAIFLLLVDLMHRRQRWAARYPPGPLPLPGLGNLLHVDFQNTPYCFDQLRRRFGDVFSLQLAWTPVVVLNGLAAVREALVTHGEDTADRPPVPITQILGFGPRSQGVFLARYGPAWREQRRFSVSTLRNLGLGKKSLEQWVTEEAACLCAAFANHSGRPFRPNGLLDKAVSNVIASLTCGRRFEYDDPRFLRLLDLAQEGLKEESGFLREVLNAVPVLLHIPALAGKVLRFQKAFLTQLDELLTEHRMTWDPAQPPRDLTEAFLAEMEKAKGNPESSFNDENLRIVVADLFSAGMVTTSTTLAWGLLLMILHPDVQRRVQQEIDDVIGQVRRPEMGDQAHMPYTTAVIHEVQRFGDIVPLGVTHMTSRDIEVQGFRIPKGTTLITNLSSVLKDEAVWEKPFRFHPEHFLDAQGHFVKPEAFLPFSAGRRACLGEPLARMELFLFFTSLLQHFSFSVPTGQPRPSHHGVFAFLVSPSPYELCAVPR

Entry CCCC[C@@H]1C[C@H]1C(NC(=O)c1ccccc1)c1ccc(Cl)cc1 (some centres undefined) — recorded AC50 = 20 µM (inconclusive)

Entry COC(=O)[C@@]1(Cc2ccc(OC)cc2)[C@H]2c3cc(C(=O)N(C)C)n(Cc4c(CO)ncc(C)c4O)c3C[C@H]2CN1C(=O)c1ccccc1 — recorded AC50 = 20 µM (inconclusive)

Entry COc1cccc(Cn2c(=O)cnc3cncnc32)c1 — recorded AC50 = 25.1 µM (inconclusive)

Entry O=C1CS/C(=C\[N+](=O)[O-])N1c1ccc(OC(F)(F)F)cc1 — recorded AC50 = 15.8 µM (inconclusive)

----------
# Target desc: Heat shock factor protein 1 (Mus musculus, UniProt P38532)
# Sequence (P38532 whole entry): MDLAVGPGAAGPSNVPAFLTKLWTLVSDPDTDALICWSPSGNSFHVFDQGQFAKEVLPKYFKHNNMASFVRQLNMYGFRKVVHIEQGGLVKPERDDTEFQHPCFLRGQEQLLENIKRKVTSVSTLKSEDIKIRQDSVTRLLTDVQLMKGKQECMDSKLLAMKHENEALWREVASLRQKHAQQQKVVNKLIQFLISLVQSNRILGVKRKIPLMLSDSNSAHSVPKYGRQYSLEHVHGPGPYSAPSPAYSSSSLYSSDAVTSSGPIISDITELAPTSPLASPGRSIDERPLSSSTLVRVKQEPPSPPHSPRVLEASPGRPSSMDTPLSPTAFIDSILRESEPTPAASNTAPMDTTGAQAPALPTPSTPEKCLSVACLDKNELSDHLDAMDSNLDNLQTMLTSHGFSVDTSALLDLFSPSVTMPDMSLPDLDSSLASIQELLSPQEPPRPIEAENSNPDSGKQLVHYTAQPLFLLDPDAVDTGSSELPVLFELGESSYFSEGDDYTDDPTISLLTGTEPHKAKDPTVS
# Assay method text: decrease of HSF1-responsive luciferase luminescence – cell-based, NIH3T3, dose retest, confirmation (AID 2382);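 further: NIH3T3 fibroblasts with HSF1-driven luciferase reporter stressed by proteasome inhibitor MG132; luminescence from HSF1-driven luciferase expression after 8 hours of MG132 stress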
# Format: functional
Activity calls are given as the source filed them.
Please go through the items and note down their EC50.

Entry CNC(=O)/C(C#N)=C/c1ccc(-c2ccc(OC)cc2[N+](=O)[O-])o1 — recorded EC50 = > 195 µM (not active)

Entry COc1ccc(C(=O)NC(=S)N2CCNC(=O)C2CC(=O)OC(C)C)cc1 (stereo unspecified) — recorded EC50 = > 195 µM (not active)

Entry O=C(CCCCCn1c(=S)[nH]c2cc3c(cc2c1=O)OCO3)N1CCN(C(=O)c2ccco2)CC1 — recorded EC50 = > 195 µM (not active)

Entry Fc1ccccc1N1CCN(Cc2cc(-c3ccccc3)on2)CC1 — recorded EC50 = > 195 µM (not active)

Entry Cc1ccc(S(=O)(=O)c2ncccc2[N+](=O)[O-])cc1 — recorded EC50 = 3.92 µM (active)

Entry COC(=O)CCC(=O)NNC(=O)c1cccc(Br)c1 — recorded EC50 = > 195 µM (not active)

----------
# Target desc: Aminopeptidase N (Plasmodium falciparum FcB1/Columbia)
# Sequence (O96935 whole entry): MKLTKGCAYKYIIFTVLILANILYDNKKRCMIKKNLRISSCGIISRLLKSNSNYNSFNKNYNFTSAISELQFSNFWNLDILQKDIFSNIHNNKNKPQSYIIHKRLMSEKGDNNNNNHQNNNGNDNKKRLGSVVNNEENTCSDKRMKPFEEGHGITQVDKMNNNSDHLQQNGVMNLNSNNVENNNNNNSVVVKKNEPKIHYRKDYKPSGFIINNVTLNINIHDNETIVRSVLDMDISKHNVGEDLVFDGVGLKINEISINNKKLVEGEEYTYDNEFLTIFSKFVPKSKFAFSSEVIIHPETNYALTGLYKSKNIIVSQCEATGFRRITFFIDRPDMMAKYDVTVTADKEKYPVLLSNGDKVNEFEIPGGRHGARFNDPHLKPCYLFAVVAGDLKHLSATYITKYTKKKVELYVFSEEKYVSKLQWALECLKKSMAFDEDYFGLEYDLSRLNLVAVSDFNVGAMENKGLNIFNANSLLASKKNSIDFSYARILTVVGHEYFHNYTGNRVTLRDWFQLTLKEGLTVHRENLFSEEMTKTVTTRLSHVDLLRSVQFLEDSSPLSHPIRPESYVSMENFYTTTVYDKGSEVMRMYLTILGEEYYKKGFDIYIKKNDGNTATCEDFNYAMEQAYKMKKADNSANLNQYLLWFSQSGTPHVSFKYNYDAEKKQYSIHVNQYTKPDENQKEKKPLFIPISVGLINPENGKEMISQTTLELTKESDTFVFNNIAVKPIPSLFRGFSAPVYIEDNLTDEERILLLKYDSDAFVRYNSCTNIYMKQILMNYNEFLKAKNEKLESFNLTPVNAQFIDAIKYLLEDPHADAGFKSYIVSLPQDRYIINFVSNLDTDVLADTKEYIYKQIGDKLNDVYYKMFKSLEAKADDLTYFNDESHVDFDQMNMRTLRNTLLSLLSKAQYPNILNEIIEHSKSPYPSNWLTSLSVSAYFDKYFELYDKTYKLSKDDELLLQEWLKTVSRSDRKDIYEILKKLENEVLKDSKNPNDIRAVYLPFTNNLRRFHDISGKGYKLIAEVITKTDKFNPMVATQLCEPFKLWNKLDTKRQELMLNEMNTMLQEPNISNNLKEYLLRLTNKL
# Assay method text: malaria alanyl aminopeptidase activity blockers – biochemical, fluorogenic H-Leu-NHMec substrate, 1536-well (AID 1445)
# Parameters: species or system Plasmodium falciparum 3D7, 3D7
The source made the active and inactive calls.
Please go through the items and note down their IC50.

Entry CCc1cc(=O)oc2c(C)c(O)c(CN3CCCCC3)cc12 — recorded IC50 = 39.9 µM (active)

Entry CCN1CCN(CCCNC(=O)c2cc3cc4ccc(OC)cc4nc3o2)CC1 — recorded IC50 = 107 µM (active)

Entry Cc1nc(C)c(C(=O)N/N=C/c2cc(Br)ccc2O)s1 — recorded IC50 = 12.9 µM (active)

Entry CC(C)S(=O)(=O)C1=NSC2=NC(=O)/C(=C\c3c[nH]c4ccccc34)C(=N)N21 — recorded IC50 = 37.3 µM (active)

Entry N#C/C(=N\Nc1cccc([N+](=O)[O-])c1)C(=O)c1ccc(Br)cc1 — recorded IC50 = 40.5 µM (active)

Entry NC(CC(=O)O)c1ccc(Br)cc1 (stereo not drawn) — recorded IC50 = 69.2 µM (active)

Entry O=c1[nH]c2ccc(Cl)cc2c(-c2ccccc2)c1CN1CCOCC1 — recorded IC50 = 81.5 µM (active)

Entry CCCCc1nc2sc3c(c2c(=O)n1NC(=O)c1ccco1)CC(C)(C)OC3 — recorded IC50 = 42.8 µM (active)

----------
# Target desc: Cytochrome P450 3A4 (Homo sapiens, UniProt P08684);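 further: CYP3A4 tested as one member of a cytochrome P450 panel screen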
# Sequence (P08684 whole entry): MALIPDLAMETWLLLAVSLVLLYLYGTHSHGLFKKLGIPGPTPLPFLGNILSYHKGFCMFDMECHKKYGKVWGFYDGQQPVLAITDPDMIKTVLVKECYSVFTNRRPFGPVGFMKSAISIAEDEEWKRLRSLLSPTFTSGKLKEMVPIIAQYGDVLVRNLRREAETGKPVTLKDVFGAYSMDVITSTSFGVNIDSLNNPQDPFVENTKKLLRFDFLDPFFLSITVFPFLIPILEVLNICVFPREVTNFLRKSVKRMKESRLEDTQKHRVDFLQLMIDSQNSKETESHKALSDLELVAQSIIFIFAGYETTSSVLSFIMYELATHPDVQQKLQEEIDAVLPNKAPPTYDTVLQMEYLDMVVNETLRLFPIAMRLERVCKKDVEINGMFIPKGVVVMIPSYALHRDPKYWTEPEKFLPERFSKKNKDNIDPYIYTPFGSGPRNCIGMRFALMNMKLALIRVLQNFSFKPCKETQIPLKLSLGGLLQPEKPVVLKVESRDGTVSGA
Reported endpoint: AC50

Entry CNC(=O)NC(=S)NC(=O)c1ccc(OC)cc1 — recorded AC50 = 31.6 µM (inconclusive)

Entry COc1ccc(Oc2ncc3nc(-c4ccc(OC)cc4)c(=O)n(Cc4cccs4)c3n2)cc1 — recorded AC50 = 3.16 µM (inconclusive)

Entry Cc1ccc(NC(S)=NC2CCCC2)cc1 — recorded AC50 = 10 µM (inconclusive)

Entry c1ccc(N2CCCC3(CCNCC3)C2)nc1 — recorded AC50 = 15.8 µM (inconclusive)

----------
# Target desc: Voltage-dependent T-type calcium channel subunit alpha-1H (Homo sapiens, UniProt O95180);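 further: channel activity triggered by adding a high calcium stimulation buffer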
# Assay type: functional
The source made the active and inactive calls.
Reported endpoint: EC50

Entry COc1ccc(C(=O)N(Cc2nc(-c3ccc(C)cc3)no2)C2CCCCC2)cc1OC — recorded EC50 = 8.02 µM (active)

Entry COCCn1nnnc1C(c1cccs1)N1CCN(c2cccc(C(F)(F)F)c2)CC1 (configuration not stated) — recorded EC50 = 97.8 µM (active)

Entry Cc1nn(Cc2ccc(Cl)c(Cl)c2)c(C)c1NC(=O)c1cn(-c2ccccc2)nc1-c1ccccc1 — recorded EC50 = 5.29 µM (active)

Entry CCC(SC1=N/C(=C/c2ccccc2OC)C(=O)N1c1ccccc1)C(=O)Nc1cc(C)on1 (configuration not stated) — recorded EC50 = 4.23 µM (active)

Entry COc1ccc(-c2noc(CSc3nnc(Cc4ccccc4)n3-c3cccc(C)c3)n2)cc1OC — recorded EC50 = 4.35 µM (active)

Entry Cc1ccccc1Cn1nc(C)c(NC(=O)c2noc3c2CCc2ccccc2-3)c1C — recorded EC50 = 1.92 µM (active)

Entry CCCCN(C)C(=O)C1CCN(Cc2ccc(OCc3ccccc3)cc2)CC1 — recorded EC50 = 7.3 µM (active)

----------
Please go through the items and note down their AC50.
# Target desc: FAD-linked sulfhydryl oxidase ALR (Homo sapiens)
# Sequence (P55789 whole entry): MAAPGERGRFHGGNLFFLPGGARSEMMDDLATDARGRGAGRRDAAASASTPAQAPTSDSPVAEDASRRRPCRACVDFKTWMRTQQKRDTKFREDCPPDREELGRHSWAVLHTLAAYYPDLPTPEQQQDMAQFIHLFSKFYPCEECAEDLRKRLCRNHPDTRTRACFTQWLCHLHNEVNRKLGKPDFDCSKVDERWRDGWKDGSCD
# Assay method text: ALR-catalysed DTT oxidation blockers – biochemical, H2O2 detection, luminescence, cherry-pick, dose response (AID 493248)
Calls of active or inactive are those of the source.

Entry COc1cc(-n2c(S)nnc2-c2ccccc2)c(OC)cc1Cl — recorded AC50 = 12.3 µM (active)

Entry Clc1ccc(/C=C/c2ncc3ccccn23)cc1 — recorded AC50 = 8.17 µM (active)

Entry O=C(O)c1ccccc1NS(=O)(=O)c1cccc(-n2sc3ccccc3c2=O)c1 — recorded AC50 = 0.243 µM (active)

Entry C=CCn1c(SCc2cccc(F)c2)nc2cc(C(=O)N3CCC(C(N)=O)CC3)ccc2c1=O — recorded AC50 = 2.27 µM (active)

Entry CN(CCCNC(=O)C1CCC(=O)N1Cc1ccccc1Cl)c1ccccc1 (configuration not stated) — recorded AC50 = 0.398 µM (active)

Entry c1ccc2nc(N3CCCC3)c(N3CCCC3)nc2c1 — recorded AC50 = 0.034 µM (active)

Entry O=C(O)c1c(C(=O)O)c(-c2ccc(Br)cc2)n2c1CSC2 — recorded AC50 = 5.35 µM (active)

Entry O=C1CSC(c2ccccn2)N1c1cccc(Cl)c1 (configuration not stated) — recorded AC50 = 0.394 µM (active)

Entry Nc1cccc(-c2cn3cccnc3n2)c1 — recorded AC50 = 0.232 µM (active)

Entry O=C(O)c1cccc(S(=O)(=O)Nc2ccc(O)c(Sc3nc4ccccc4s3)c2)c1 — recorded AC50 = 0.176 µM (active)

Entry O=[N+]([O-])c1c(O)nc(/C=C\c2cccc(F)c2)nc1O — recorded AC50 = 1.76 µM (active)

Entry Sc1nncn1/N=C/c1ccccn1 — recorded AC50 = 3.06 µM (active)

Measured values drawn from ChEMBL document CHEMBL1201862 for this set.
